Provide the recorded IC50 (µg/mL), pseudovirus neutralization for the entries that follow.
Test System: HIV-1 Env of isolate MGRM-A-002 (HIV-1)
Experimental Protocol: cell-based or functional assay
Write down the numeric answer in µg/mL and omit the unit.

Enquiry: For PGT-127 (antibody, V domains shown) VH: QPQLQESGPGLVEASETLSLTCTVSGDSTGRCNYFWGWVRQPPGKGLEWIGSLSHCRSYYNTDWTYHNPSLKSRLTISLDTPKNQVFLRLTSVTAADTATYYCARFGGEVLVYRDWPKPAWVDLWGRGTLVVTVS VL: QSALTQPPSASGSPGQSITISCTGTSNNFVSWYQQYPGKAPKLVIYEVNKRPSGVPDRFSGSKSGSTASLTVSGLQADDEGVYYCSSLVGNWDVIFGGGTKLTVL , what is its reported IC50 (µg/mL), pseudovirus neutralization?
Return: 9.42

Enquiry: For PGT-125 (antibody, V domains shown) VH: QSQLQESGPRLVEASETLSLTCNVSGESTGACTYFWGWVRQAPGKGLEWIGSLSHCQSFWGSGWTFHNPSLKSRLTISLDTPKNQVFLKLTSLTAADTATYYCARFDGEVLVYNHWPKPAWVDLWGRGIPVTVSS VL: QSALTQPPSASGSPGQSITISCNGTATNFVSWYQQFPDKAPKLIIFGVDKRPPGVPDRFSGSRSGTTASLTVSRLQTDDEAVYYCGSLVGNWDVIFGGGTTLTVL , what is its reported IC50 (µg/mL), pseudovirus neutralization?
Return: 0.013

Enquiry: For PGT-126 (antibody, V domains shown) VH: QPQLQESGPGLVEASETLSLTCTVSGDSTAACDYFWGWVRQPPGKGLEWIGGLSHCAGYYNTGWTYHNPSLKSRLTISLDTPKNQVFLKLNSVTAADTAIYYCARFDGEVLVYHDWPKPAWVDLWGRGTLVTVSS VL: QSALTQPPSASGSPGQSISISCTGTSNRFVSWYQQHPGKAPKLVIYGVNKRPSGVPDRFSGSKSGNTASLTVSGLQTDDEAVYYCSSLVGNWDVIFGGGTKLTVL , what is its reported IC50 (µg/mL), pseudovirus neutralization?
Return: 0.015

Enquiry: For PGT-123 (antibody, V domains shown) VH: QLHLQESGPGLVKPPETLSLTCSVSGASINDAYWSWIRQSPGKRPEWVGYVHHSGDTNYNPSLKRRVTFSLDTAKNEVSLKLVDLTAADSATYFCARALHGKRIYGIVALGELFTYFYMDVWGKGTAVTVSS VL: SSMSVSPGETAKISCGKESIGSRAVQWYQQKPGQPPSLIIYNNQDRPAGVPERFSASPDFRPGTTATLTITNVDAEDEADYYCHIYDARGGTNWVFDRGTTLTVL , what is its reported IC50 (µg/mL), pseudovirus neutralization?
Return: 0.011
